# key: entry, value: self-cleavage kobs at 40 uM GlcN6P
B1: glmS ribozyme (parent)
chain: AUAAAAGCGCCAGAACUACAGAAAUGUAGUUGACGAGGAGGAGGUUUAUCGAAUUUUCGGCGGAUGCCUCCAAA

# Variants of: B1
# Assay overview: self-cleavage kobs at 40 uM GlcN6P; higher = faster cleavage; RNA array
# Run parameters: with glucosamine-6-phosphate
Fewer inactive variants are shown than the library holds.
Reported property: self-cleavage kobs at 40 uM GlcN6P

G9C G62U; < 1e-05 s⁻¹
G32U U49G; < 1e-05 s⁻¹
A14G U46G C67A; 0.000265 s⁻¹
C16A U55A G63U; < 1e-05 s⁻¹
G40U U56C; < 1e-05 s⁻¹
C34A G44A; < 1e-05 s⁻¹
A33G C50G G66U; 0.000106 s⁻¹
U49C C67G; < 1e-05 s⁻¹
C11G G37U A53G; < 1e-05 s⁻¹
G32U A52G C68G; 0.000277 s⁻¹
G43U U47A; < 1e-05 s⁻¹
A39G U55C; 0.00123 s⁻¹
U55G U57C; < 1e-05 s⁻¹
G7C U65G; < 1e-05 s⁻¹
C50G G63C C71U; 7.02e-05 s⁻¹
A6C G37U G44U; < 1e-05 s⁻¹
A15U G38U; < 1e-05 s⁻¹
A14C C68G U69A; < 1e-05 s⁻¹
G32C A53C; < 1e-05 s⁻¹
G37A C50U; < 1e-05 s⁻¹
A12U A53C; 0.000569 s⁻¹
G38U C68G; 6.28e-05 s⁻¹
